molecular target: CYP2B6 (UniProt P20813); assay: CYP enzyme activity (probe substrate metabolite formation) fold change vs solvent control; higher = stronger induction of CYP activity; details: 5 µM; treatment time 12 h; HepaRG
Sequence (P20813 whole entry): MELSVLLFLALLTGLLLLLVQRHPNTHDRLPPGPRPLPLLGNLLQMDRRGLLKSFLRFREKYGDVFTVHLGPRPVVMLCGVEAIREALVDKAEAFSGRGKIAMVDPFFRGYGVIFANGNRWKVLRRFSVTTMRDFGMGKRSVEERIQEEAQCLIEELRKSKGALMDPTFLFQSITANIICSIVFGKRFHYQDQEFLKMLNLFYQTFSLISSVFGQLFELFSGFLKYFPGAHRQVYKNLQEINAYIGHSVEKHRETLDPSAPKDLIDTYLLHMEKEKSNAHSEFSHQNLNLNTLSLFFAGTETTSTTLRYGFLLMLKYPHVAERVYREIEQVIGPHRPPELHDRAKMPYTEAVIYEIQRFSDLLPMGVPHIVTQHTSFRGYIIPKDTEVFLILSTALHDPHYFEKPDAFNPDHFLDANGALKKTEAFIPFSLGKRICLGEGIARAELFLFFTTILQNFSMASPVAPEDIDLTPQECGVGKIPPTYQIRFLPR
Answer not fulfilled if CYP enzyme activity is under 1, and fulfilled if it is 1 or more.

Example entries and their recorded answers appear below.
| MOLECULE | LABEL CLASS |
| --- | --- |
| c1ccc2c(c1)cc1ccc3cccc4ccc2c1c34 [benzo[a]pyrene] | fulfilled |
| c1ccc2cc3c(cc2c1)-c1cccc2cccc-3c12 [benzo[k]fluoranthene] | not fulfilled |
| c1ccc2c(c1)ccc1ccccc12 | fulfilled |

Exam item: Form field: CYP enzyme activity at least 1? Entry: c1ccc2cc3c(ccc4ccccc43)cc2c1 [benzo[a]anthracene]
Marked response: fulfilled

Exam item: Form field: CYP enzyme activity at least 1? Entry: "c1cc2ccc3cccc4ccc(c1)c2c34"
Marked response: fulfilled

====

Consider the following molecules and their measured CYP enzyme activity readings.
biological target: CYP1A2 (UniProt P05177); experiment: CYP enzyme activity (probe substrate metabolite formation) fold change vs solvent control; higher = stronger induction of CYP activity; conditions: 5 µM; treatment time 48 h; HepaRG
Sequence (P05177 whole entry): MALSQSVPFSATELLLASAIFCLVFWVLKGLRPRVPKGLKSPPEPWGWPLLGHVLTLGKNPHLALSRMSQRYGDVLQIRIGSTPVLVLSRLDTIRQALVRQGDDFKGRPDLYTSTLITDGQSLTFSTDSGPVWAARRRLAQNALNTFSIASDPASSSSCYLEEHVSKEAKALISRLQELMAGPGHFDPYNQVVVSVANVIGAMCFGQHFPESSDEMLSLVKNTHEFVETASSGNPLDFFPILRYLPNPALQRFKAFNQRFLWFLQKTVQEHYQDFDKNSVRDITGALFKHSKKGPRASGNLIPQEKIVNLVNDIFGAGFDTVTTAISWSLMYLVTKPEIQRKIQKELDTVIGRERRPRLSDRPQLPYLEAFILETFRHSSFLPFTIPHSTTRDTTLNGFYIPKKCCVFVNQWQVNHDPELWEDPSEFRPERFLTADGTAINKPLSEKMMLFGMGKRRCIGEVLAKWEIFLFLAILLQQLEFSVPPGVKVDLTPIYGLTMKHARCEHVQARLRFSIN
// keep it numeric: no unit symbol after the value

Past entries and their recorded results:
| MOLECULE | TEST SYSTEM | OBSERVABLE | NUMBER |
| --- | --- | --- | --- |
| c1ccc2c(c1)cc1ccc3cccc4c5ccccc5c2c1c34 [dibenzo[a,l]pyrene] | CYP1A2 (UniProt P05177) | CYP enzyme activity | 0.603 |
| c1ccc2c(c1)ccc1ccc3ccccc3c12 [benzo[c]phenanthrene] | CYP1A2 (UniProt P05177) | CYP enzyme activity | 1.28 |
| c1ccc2c(c1)ccc1ccccc12 | CYP1A2 (UniProt P05177) | CYP enzyme activity | 1.09 |
| c1ccc2cc3c(ccc4ccccc43)cc2c1 [benzo[a]anthracene] | CYP1A2 (UniProt P05177) | CYP enzyme activity | 1.98 |
| c1ccc2c(c1)-c1cccc3cccc-2c13 | CYP1A2 (UniProt P05177) | CYP enzyme activity | 1.27 |

Now consider a different molecule.
Exam item: Any idea what its CYP enzyme activity is? The molecule is c1ccc2cc3c(cc2c1)-c1cccc2cccc-3c12 [benzo[k]fluoranthene]
Marked response: 27.3

====

molecular target: CYP2C8 (UniProt P10632); test: CYP enzyme activity (probe substrate metabolite formation) fold change vs solvent control; higher = stronger induction of CYP activity; details: 1 µM; treatment time 48 h; HepaRG
Sequence (P10632 whole entry): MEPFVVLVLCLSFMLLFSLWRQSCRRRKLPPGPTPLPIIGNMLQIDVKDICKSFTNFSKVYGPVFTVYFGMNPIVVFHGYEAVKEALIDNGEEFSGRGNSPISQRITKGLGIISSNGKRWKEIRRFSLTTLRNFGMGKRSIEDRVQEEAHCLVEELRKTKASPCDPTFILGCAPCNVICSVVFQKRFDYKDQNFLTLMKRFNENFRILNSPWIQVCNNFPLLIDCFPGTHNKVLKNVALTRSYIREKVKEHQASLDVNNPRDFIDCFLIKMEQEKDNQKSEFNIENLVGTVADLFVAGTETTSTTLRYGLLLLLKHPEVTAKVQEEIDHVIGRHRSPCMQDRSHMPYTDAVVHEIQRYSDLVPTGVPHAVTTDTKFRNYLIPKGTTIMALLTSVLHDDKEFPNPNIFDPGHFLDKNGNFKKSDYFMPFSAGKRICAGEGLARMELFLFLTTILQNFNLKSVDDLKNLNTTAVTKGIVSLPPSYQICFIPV
Consider the following compounds and their measured CYP enzyme activity readings.
// keep it numeric: no unit symbol after the value

Past entries and their recorded results:
| COMPOUND | CYP enzyme activity |
| --- | --- |
| c1ccc2c(c1)cc1ccc3cccc4ccc2c1c34 [benzo[a]pyrene] | 0.895 |
| c1ccc2cc3c(ccc4ccccc43)cc2c1 [benzo[a]anthracene] | 1.01 |
| c1ccc2cc3c(cc2c1)-c1cccc2cccc-3c12 [benzo[k]fluoranthene] | 0.812 |
| c1ccc2c(c1)-c1cccc3cccc-2c13 | 1.14 |
| c1cc2ccc3cccc4ccc(c1)c2c34 | 1.07 |

Exam item: Param readout = CYP enzyme activity; param system = CYP2C8 (UniProt P10632); param query = c1ccc2c(c1)ccc1ccc3ccccc3c12 [benzo[c]phenanthrene] ; response: value
Marked response: 0.962

Exam item: Param readout = CYP enzyme activity; param system = CYP2C8 (UniProt P10632); param query = c1ccc2c(c1)cc1ccc3cccc4c5ccccc5c2c1c34 [dibenzo[a,l]pyrene] ; response: value
Marked response: 0.78

Exam item: Param readout = CYP enzyme activity; param system = CYP2C8 (UniProt P10632); param query = c1ccc2c3c(ccc2c1)-c1cccc2cccc-3c12 [benzo[j]fluoranthene] ; response: value
Marked response: 0.974

Exam item: Param readout = CYP enzyme activity; param system = CYP2C8 (UniProt P10632); param query = "c1ccc2c(c1)ccc1ccccc12" ; response: value
Marked response: 1.01

Exam item: Param readout = CYP enzyme activity; param system = CYP2C8 (UniProt P10632); param query = c1ccc2c(c1)-c1cccc3c1c-2cc1ccccc13 [benzo[b]fluoranthene] ; response: value
Marked response: 0.908

====

biological target: CYP1A2 (UniProt P05177); test: CYP enzyme activity (probe substrate metabolite formation) fold change vs solvent control; higher = stronger induction of CYP activity; conditions: 5 µM; treatment time 24 h; HepaRG
Answer FALSE if CYP enzyme activity is under 2, and TRUE if it is 2 or more.

| COMPOUND | TEST SYSTEM | LABEL CLASS |
| --- | --- | --- |
| c1ccc2c(c1)-c1cccc3c1c-2cc1ccccc13 [benzo[b]fluoranthene] | CYP1A2 (UniProt P05177) | TRUE |

Exam item: Form field: CYP enzyme activity at least 2? Entry: "c1ccc2c(c1)-c1cccc3cccc-2c13"
Marked response: FALSE

Exam item: Form field: CYP enzyme activity at least 2? Entry: c1ccc2c3c(ccc2c1)-c1cccc2cccc-3c12 [benzo[j]fluoranthene]
Marked response: TRUE

Exam item: Form field: CYP enzyme activity at least 2? Entry: c1ccc2c(c1)cc1ccc3cccc4ccc2c1c34 [benzo[a]pyrene]
Marked response: TRUE

====

Consider the following compounds and their measured CYP enzyme activity readings.
target: CYP2C9 (UniProt P11712); assay: CYP enzyme activity (probe substrate metabolite formation) fold change vs solvent control; higher = stronger induction of CYP activity; settings: 10 µM; treatment time 12 h; HepaRG
Sequence (P11712 whole entry): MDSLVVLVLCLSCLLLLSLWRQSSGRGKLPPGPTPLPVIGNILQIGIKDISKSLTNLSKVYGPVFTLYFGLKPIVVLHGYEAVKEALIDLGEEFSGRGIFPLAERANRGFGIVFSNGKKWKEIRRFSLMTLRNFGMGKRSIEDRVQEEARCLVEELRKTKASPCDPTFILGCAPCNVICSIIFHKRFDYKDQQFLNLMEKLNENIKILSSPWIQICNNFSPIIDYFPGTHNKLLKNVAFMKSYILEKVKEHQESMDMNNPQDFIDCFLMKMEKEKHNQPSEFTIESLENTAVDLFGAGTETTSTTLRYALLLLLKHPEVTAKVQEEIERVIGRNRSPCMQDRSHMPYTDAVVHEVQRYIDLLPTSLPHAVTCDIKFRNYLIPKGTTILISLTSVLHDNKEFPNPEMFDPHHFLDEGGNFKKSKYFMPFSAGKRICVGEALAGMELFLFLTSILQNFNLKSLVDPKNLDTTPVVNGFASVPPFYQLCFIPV
// keep it numeric: no unit symbol after the value

Past entries and their recorded results:
| COMPOUND | NUMBER |
| --- | --- |
| c1ccc2c(c1)ccc1ccc3ccccc3c12 [benzo[c]phenanthrene] | 1.01 |
| c1ccc2cc3c(cc2c1)-c1cccc2cccc-3c12 [benzo[k]fluoranthene] | 0.725 |
| c1ccc2c(c1)-c1cccc3c1c-2cc1ccccc13 [benzo[b]fluoranthene] | 0.939 |

Exam item: Any idea what its CYP enzyme activity is? The compound is "c1ccc2c(c1)ccc1ccccc12"
Marked response: 1.03

Exam item: Any idea what its CYP enzyme activity is? The compound is "c1ccc2c(c1)-c1cccc3cccc-2c13"
Marked response: 1.15

====

molecular target: CYP2C8 (UniProt P10632); assay: CYP enzyme activity (probe substrate metabolite formation) fold change vs solvent control; higher = stronger induction of CYP activity; conditions: 1 µM; treatment time 12 h; HepaRG
OBSERVABLE: CYP enzyme activity
// keep it numeric: no unit symbol after the value

| COMPOUND | CYP enzyme activity |
| --- | --- |
| c1ccc2c(c1)-c1cccc3cccc-2c13 | 1.01 |
| c1ccc2c3c(ccc2c1)-c1cccc2cccc-3c12 [benzo[j]fluoranthene] | 0.921 |
| c1ccc2cc3c(cc2c1)-c1cccc2cccc-3c12 [benzo[k]fluoranthene] | 0.918 |
| c1ccc2c(c1)ccc1ccc3ccccc3c12 [benzo[c]phenanthrene] | 0.945 |
| c1cc2ccc3cccc4ccc(c1)c2c34 | 1.01 |

Exam item: Any idea what its CYP enzyme activity is? The compound is c1ccc2c(c1)cc1ccc3cccc4c5ccccc5c2c1c34 [dibenzo[a,l]pyrene]
Marked response: 1

Exam item: Any idea what its CYP enzyme activity is? The compound is "c1ccc2c(c1)ccc1ccccc12"
Marked response: 0.995

====

Consider the following compounds and their measured CYP enzyme activity readings.
target: CYP2C19 (UniProt P33261); assay: CYP enzyme activity (probe substrate metabolite formation) fold change vs solvent control; higher = stronger induction of CYP activity; conditions: 1 µM; treatment time 12 h; HepaRG
Sequence (P33261 whole entry): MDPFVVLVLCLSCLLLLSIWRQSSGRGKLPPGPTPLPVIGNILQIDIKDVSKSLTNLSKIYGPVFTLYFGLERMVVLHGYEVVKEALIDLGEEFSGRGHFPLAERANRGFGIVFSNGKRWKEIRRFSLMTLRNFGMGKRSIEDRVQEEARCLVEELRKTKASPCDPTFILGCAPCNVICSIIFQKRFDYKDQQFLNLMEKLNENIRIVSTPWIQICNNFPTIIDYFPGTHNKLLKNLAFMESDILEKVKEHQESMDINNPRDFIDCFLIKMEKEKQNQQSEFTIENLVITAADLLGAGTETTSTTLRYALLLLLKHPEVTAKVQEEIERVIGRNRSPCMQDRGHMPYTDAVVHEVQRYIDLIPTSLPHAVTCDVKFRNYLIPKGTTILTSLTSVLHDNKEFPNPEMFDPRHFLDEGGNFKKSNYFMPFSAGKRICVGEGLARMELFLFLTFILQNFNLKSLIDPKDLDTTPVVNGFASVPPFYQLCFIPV
// keep it numeric: no unit symbol after the value

Past entries and their recorded results:
| COMPOUND | CYP enzyme activity |
| --- | --- |
| c1ccc2cc3c(cc2c1)-c1cccc2cccc-3c12 [benzo[k]fluoranthene] | 0.834 |
| c1ccc2c(c1)ccc1ccccc12 [phenanthrene] | 0.946 |
| c1cc2ccc3cccc4ccc(c1)c2c34 [pyrene] | 0.893 |
| c1ccc2c(c1)ccc1ccc3ccccc3c12 [benzo[c]phenanthrene] | 0.916 |
| c1ccc2cc3c(ccc4ccccc43)cc2c1 [benzo[a]anthracene] | 0.754 |

Exam item: Any idea what its CYP enzyme activity is? The compound is c1ccc2c(c1)cc1ccc3cccc4c5ccccc5c2c1c34 [dibenzo[a,l]pyrene]
Marked response: 0.768

Exam item: Any idea what its CYP enzyme activity is? The compound is c1ccc2c(c1)cc1ccc3cccc4ccc2c1c34 [benzo[a]pyrene]
Marked response: 0.898

====

target: CYP2C9 (UniProt P11712); assay: CYP enzyme activity (probe substrate metabolite formation) fold change vs solvent control; higher = stronger induction of CYP activity; details: 10 µM; treatment time 24 h; HepaRG
Consider the following compounds and their measured CYP enzyme activity readings.
// keep it numeric: no unit symbol after the value

Past entries and their recorded results:
| COMPOUND | OBSERVABLE | NUMBER |
| --- | --- | --- |
| c1ccc2cc3c(cc2c1)-c1cccc2cccc-3c12 [benzo[k]fluoranthene] | CYP enzyme activity | 0.594 |
| c1ccc2c3c(ccc2c1)-c1cccc2cccc-3c12 [benzo[j]fluoranthene] | CYP enzyme activity | 0.771 |
| c1ccc2c(c1)cc1ccc3cccc4c5ccccc5c2c1c34 [dibenzo[a,l]pyrene] | CYP enzyme activity | 0.732 |
| c1ccc2c(c1)ccc1ccccc12 | CYP enzyme activity | 1.17 |
| c1cc2ccc3cccc4ccc(c1)c2c34 | CYP enzyme activity | 1.08 |

Now consider a different compound.
Exam item: Any idea what its CYP enzyme activity is? The compound is c1ccc2cc3c(ccc4ccccc43)cc2c1 [benzo[a]anthracene]
Marked response: 1.02
